Would you kindly list EC50 for each of these compounds?
- System: HBV (encapsidated HBV DNA, HepG2.2.15 cells)
- run-description: HBV replication inhibition assay, BDNA assay in HepG2.2.15 cells
- Assay type: cell-based
- assay-conditions: Hepatitis B virus, HepG2.2.15, Activity in BDNA-assay
- Procedure: HBV replication inhibition by the disclosed compounds were determined in cells infected or transfected with HBV, or cells with stably integrated HBV, such as HepG2.2.15 cells (Sells et al. 1987). […] HBV DNA was denatured by addition of 0.2 M NaOH and detected using a branched DNA (BDNA) QuantiGene assay kit according to manufacturer recommendation (Affymetrix). […]

## Task EC50 lookup needed for CCOC(=O)C1CN(C)C(=O)c2c3c(nn2C1)CCN(C(=O)Nc1ccc(F)c(Cl)c1)C3 (stereo not drawn) , thanks.
## Result > 1000 nM

## Task Need EC50, item C[C@@H]1Cc2nn3c(c2CN1C(=O)Nc1ccc(F)c(C#N)c1)C(=O)N(C)CC1(CC(O)C1)C3 (stereo partly drawn)
## Result 1 to 100 nM

## Task Look at this compound and give its reported EC50. CN1CC(CNCC(F)F)Cn2nc3c(c2C1=O)CN(C(=O)Nc1ccc(F)c(C(F)(F)F)c1)CC3 (stereo not drawn)
## Result 1 to 100 nM

The origin of these recorded values is patent US10975077B2.
